The reported measurements were obtained from PubChem BioAssay AID2060900.

Test system: 521955-158-R2-J5-PDC complex spheroids, viability
ASSAY: Anticancer human tumor 521955-158-R2-J5-PDC patient-derived pancreatic carcinoma cell line growth inhibition [RAS]
DETAILS: second compound 0.000949 µM; first compound 0.00316 µM; stronger effect = lower value
From the text: RAS pathway inhibitors in Combinations in Complex Spheroids A high-throughput screen of multi-cell type tumor spheroids was designed to identify active combinations of RAS pathway inhibitors and targeted small molecules. Complex spheroids include a stromal component modeled by human endothelial cells (HUVEC) and fibroblasts modeled by human mesenchymal stem cells (MSCs). […] Compounds. […] If the clinical Cmax for an agent had not been determined, the highest concentration tested was 10 microM. […]
PROPERTY_NAME: viability, T/C (%)
Answer with a number only, understood to be in %.

In plain terms, C=CC(=O)N1CCN(c2nc(OCC3CCCN3C)nc3c(F)c(-c4nc(N)cc(C)c4C(F)(F)F)c(Cl)cc23)C(C)C1 (centres undefined) + CCn1c(-c2cccnc2C(C)OC)c2c3cc(ccc31)N1CCOC(CC(NC(=O)C(C(C)C)N(C)C(=O)C3(F)CCN(C(=O)C#CC(C)(C)N(C)C)CC3)C(=O)N3CCCC(N3)C(=O)OCC(C)(C)C2)C1 has a documented viability, T/C of 100

In plain terms, C=CC(=O)N1CCN(c2nc(OCC3CCCN3C)nc3c(F)c(-c4nc(N)cc(C)c4C(F)(F)F)c(Cl)cc23)C(C)C1 (centres undefined) + CCn1c(-c2cc(N3CCN(C)CC3)cnc2C(C)OC)c2c3cc(ccc31)-c1csc(n1)CC(NC(=O)C1CC1C)C(=O)N1CCCC(N1)C(=O)OCC(C)(C)C2 has a documented viability, T/C of 42.5

In plain terms, CC(C)n1nc(-c2ccc3oc(N)nc3c2)c2c(N)ncnc21 + CCn1c(-c2cc(N3CCN(C)CC3)cnc2C(C)OC)c2c3cc(ccc31)-c1csc(n1)CC(NC(=O)C1CC1C)C(=O)N1CCCC(N1)C(=O)OCC(C)(C)C2 has a documented viability, T/C of 37.6

In plain terms, CC(C)n1nc(-c2ccc3oc(N)nc3c2)c2c(N)ncnc21 + CCn1c(-c2cccnc2C(C)OC)c2c3cc(ccc31)N1CCOC(CC(NC(=O)C(C(C)C)N(C)C(=O)C3(F)CCN(C(=O)C#CC(C)(C)N(C)C)CC3)C(=O)N3CCCC(N3)C(=O)OCC(C)(C)C2)C1 has a documented viability, T/C of 83.1

###

Tested on: 521955-158-R2-J5-PDC complex spheroids, viability
ASSAY: Anticancer human tumor 521955-158-R2-J5-PDC cell line growth inhibition [RAS];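 further: compound exposure lasted seven days before the viability read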
DETAILS: curve of first compound; second compound 0.00316 µM
PROPERTY_NAME: IC50 (nM)
Answer with a number only, understood to be in nM.

In plain terms, CC1(O)CCCC1n1c(=O)c(C(F)F)cc2cnc(NC3CCN(S(C)(=O)=O)CC3)nc21 (stereo not given) + C=CC(=O)N1CCN(c2nc(OCC3CCCN3C)nc3c(F)c(-c4nc(N)cc(C)c4C(F)(F)F)c(Cl)cc23)C(C)C1 has a documented IC50 of 5890

In plain terms, CCc1c2c(nc3ccc(O)cc13)-c1cc3c(c(=O)n1C2)COC(=O)[C@]3(O)CC + C=CC(=O)N1CCN(c2nc(OCC3CCCN3C)nc3c(F)c(-c4nc(N)cc(C)c4C(F)(F)F)c(Cl)cc23)C(C)C1 has a documented IC50 of 2.29

In plain terms, CCC(CC)c1cc(NC2CCC(N)C2)n2nccc2n1 (stereo not given) + C=CC(=O)N1CCN(c2nc(OCC3CCCN3C)nc3c(F)c(-c4nc(N)cc(C)c4C(F)(F)F)c(Cl)cc23)C(C)C1 has a documented IC50 of 1950

In plain terms, CC(C)n1nc(-c2ccc3oc(N)nc3c2)c2c(N)ncnc21 + C=CC(=O)N1CCN(c2nc(OCC3CCCN3C)nc3c(F)c(-c4nc(N)cc(C)c4C(F)(F)F)c(Cl)cc23)C(C)C1 has a documented IC50 of 25.5

In plain terms, C=CC(=O)Nc1cc(Nc2nccc(-c3cn(C)c4ccccc34)n2)c(OC)cc1N(C)CCN(C)C + C=CC(=O)N1CCN(c2nc(OCC3CCCN3C)nc3c(F)c(-c4nc(N)cc(C)c4C(F)(F)F)c(Cl)cc23)C(C)C1 has a documented IC50 of 970

In plain terms, Nc1ccn(C2OC(CO)C(O)C2(F)F)c(=O)n1 (stereo not given) + C=CC(=O)N1CCN(c2nc(OCC3CCCN3C)nc3c(F)c(-c4nc(N)cc(C)c4C(F)(F)F)c(Cl)cc23)C(C)C1 has a documented IC50 of 136

In plain terms, O=C(c1ccc(F)c(F)c1Nc1ccc(I)cc1F)N1CC(O)([C@@H]2CCCCN2)C1 + C=CC(=O)N1CCN(c2nc(OCC3CCCN3C)nc3c(F)c(-c4nc(N)cc(C)c4C(F)(F)F)c(Cl)cc23)C(C)C1 has a documented IC50 of 23

In plain terms, CC(Nc1ccc2c(c1)OCCn1cc(N3C(=O)OCC3C(F)F)nc1-2)C(N)=O (stereo not given) + C=CC(=O)N1CCN(c2nc(OCC3CCCN3C)nc3c(F)c(-c4nc(N)cc(C)c4C(F)(F)F)c(Cl)cc23)C(C)C1 has a documented IC50 of 1320
